Target: Sphingosine 1-phosphate receptor 1 (Homo sapiens, UniProt P21453)
Sequence (P21453 whole entry): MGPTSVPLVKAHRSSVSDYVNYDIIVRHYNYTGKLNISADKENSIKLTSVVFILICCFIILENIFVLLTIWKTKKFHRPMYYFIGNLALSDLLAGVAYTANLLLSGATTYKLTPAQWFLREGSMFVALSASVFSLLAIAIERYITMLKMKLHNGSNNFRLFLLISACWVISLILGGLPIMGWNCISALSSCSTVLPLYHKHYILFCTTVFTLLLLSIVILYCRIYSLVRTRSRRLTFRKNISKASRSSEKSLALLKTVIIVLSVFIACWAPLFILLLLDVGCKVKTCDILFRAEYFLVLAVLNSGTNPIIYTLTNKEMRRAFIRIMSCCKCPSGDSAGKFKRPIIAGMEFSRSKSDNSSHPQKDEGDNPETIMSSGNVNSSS
Experiment: Antagonist activity at human S1P1 receptor expressed in CHO cell membrane by cAMP assay
Type: functional, cell-based
pIC50: −log10 of the molar value.
measurement.type: pIC50

# molecule, measurement.type, relation.operator, result
data = [
    ("CCCCCCCCCCC#CC(O)c1ccccc1-c1ccc(Sc2ccc(OCC)cc2)c(S(=O)(=O)O)c1 (stereo not drawn)", "pIC50", "=", 6.40),
    ("CCCCOc1ccc(Sc2ccc(-c3ccccc3C(O)C#CCOCCCO)cc2S(=O)(=O)O)cc1 (stereo not drawn)", "pIC50", "<", 4.70),
    ("CCCCCCCCCCCCCCCCCC1=NN(c2ccc(Oc3ccc(OCC)cc3)c(S(=O)(=O)O)c2)C(=O)C1", "pIC50", "=", 4.77),
]

###

Target: Sphingosine 1-phosphate receptor 3 (Homo sapiens)
Sequence (Q99500 whole entry): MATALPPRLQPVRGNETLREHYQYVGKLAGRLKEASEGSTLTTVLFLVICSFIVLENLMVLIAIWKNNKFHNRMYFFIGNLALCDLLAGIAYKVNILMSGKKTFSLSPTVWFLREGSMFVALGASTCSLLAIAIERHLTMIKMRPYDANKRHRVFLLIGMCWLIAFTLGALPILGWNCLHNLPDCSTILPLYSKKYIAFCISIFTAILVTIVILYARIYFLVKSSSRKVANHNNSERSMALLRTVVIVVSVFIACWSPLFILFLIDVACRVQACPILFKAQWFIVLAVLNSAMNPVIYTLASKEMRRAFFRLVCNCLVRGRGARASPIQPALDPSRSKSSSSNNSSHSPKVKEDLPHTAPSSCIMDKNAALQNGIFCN
Assay: Antagonist activity at human S1P3 receptor expressed in CHO cell membrane by FLIPR assay
pIC50: −log10 of the molar value.
Listing: pIC50 of selected compounds

# compound, pIC50
records = [
    ("CCCCOc1ccc(Sc2ccc(-c3ccccc3C(O)C#CCOCCCCCCCO)cc2S(=O)(=O)O)cc1 (configuration not stated)", 5.30),
    ("CCCCCCCCCCC#CC(O)c1ccccc1-c1ccc(Sc2ccc(OCCCC)cc2)c(S(=O)(=O)O)c1 (configuration not stated)", 4.89),
]

###

Target: Sphingosine 1-phosphate receptor 1 (Homo sapiens)
Experiment: Antagonist activity at human S1P1 receptor expressed in CHO cell membrane by FLIPR assay
Type: functional, cell-based
pIC50: −log10 of the molar value.
measurement.type: pIC50

# molecule, result
rows = [
    ("CCCCOc1ccc(Sc2ccc(-c3ccccc3C(O)C#CCOCCCCCCCO)cc2S(=O)(=O)O)cc1 (configuration not stated)", 6.30),
    ("CCCCCCCCCCC#CC(O)c1ccccc1-c1ccc(Sc2ccc(OCCCC)cc2)c(S(=O)(=O)O)c1 (configuration not stated)", 6.00),
]

###

Target: Sphingosine 1-phosphate receptor 2 (Homo sapiens, UniProt O95136)
Sequence (O95136 whole entry): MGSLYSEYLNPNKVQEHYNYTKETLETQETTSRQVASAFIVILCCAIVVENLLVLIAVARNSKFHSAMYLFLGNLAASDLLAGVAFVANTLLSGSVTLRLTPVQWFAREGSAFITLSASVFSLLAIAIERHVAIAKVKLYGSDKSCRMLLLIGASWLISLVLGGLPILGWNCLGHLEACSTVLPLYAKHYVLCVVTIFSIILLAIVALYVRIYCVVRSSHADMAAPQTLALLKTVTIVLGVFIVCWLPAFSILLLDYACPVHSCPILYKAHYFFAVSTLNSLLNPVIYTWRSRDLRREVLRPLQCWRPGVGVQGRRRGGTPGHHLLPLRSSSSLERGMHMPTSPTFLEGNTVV
Assay: Antagonist activity at human S1P2 receptor expressed in CHO cell membrane by FLIPR assay

# molecule, readout.unit, IC50
records = [
    ("CCCCCCCCCCC#CC(O)c1ccccc1-c1ccc(Sc2ccc(OCCCC)cc2)c(S(=O)(=O)O)c1 (configuration not stated)", "µM", 24),
    ("CCCCOc1ccc(Sc2ccc(-c3ccccc3C(O)C#CCOCCCCCCCO)cc2S(=O)(=O)O)cc1 (configuration not stated)", "µM", 11),
]

###

# IC50 per record follows
Biological target: Sphingosine 1-phosphate receptor 1 (Homo sapiens, UniProt P21453)
Assay: Antagonist activity at human S1P1 receptor expressed in CHO cell membrane by cAMP assay
Type: functional, cell-based
measurement.type: IC50 (nM)

# compound, measurement.type, result
records = [
    ("CCCCCCCCCCC#CC(O)c1ccccc1-c1ccc(Sc2ccc(OCCC)cc2)c(S(=O)(=O)O)c1 (stereo not drawn)", "IC50", 190),
    ("CCCCOc1ccc(Sc2ccc(-c3ccccc3C(O)C#CCOCCCCCCCCCO)cc2S(=O)(=O)O)cc1 (stereo not drawn)", "IC50", 98),
    ("CCCCCCCCCCC#CC(O)c1ccc(-c2ccc(Oc3ccc(OCC)cc3)c(S(=O)(=O)O)c2)s1 (stereo not drawn)", "IC50", 5500),
    ("CCCCCCCCCCC#CC(O)c1ccccc1-c1ccc(Oc2ccc(OCC)cc2)c(S(=O)(=O)O)c1 (stereo not drawn)", "IC50", 400),
    ("CCCCCCCCCCC#CC(C)(O)c1ccccc1-c1ccc(Sc2ccc(OCCCC)cc2)c(S(=O)(=O)O)c1 (stereo not drawn)", "IC50", 1000),
    ("CCCCCCCCCCC#CC(O)c1ccccc1-c1ccc(Sc2ccc(OCCCC)cc2)c(S(=O)(=O)O)c1 (stereo not drawn)", "IC50", 190),
    ("CCCCOc1ccc(Sc2ccc(-c3ccccc3C(O)C#CCOCCCCCCCCCCCO)cc2S(=O)(=O)O)cc1 (stereo not drawn)", "IC50", 130),
    ("CCCCCCCCCCC#CC(O)c1ccccc1-c1ccc(Oc2ccccc2OCC)c(S(=O)(=O)O)c1 (stereo not drawn)", "IC50", 8900),
]

Measured values drawn from ChEMBL document CHEMBL1139900 for this set.
